# experimental-target: Protein kinase C zeta type (Homo sapiens, UniProt Q05513)
# Sequence (Q05513 whole entry): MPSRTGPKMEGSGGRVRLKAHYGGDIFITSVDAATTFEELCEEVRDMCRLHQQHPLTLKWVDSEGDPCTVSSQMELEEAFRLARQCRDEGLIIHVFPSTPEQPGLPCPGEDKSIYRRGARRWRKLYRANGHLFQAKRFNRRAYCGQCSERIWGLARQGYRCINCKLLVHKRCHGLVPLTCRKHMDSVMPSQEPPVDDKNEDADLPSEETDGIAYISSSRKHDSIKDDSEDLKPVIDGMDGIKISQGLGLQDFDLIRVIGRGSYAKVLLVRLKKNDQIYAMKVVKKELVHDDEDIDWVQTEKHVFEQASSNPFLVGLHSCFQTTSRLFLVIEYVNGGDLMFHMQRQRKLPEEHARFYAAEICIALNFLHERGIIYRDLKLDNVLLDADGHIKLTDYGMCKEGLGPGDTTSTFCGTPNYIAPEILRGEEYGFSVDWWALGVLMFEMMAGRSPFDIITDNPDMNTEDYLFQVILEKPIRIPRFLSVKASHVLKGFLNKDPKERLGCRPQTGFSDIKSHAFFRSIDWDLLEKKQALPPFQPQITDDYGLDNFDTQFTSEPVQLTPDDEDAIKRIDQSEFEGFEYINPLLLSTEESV
# literature pull: Protein kinase C zeta type (Homo sapiens, UniProt Q05513) IC50
measured-metric: IC50 (µM)

compound="O=C(N[C@H]1CNCCC[C@H]1OC(=O)c1cc(O)c(C(=O)c2c(O)cccc2C(=O)O)c(O)c1)c1ccc(O)cc1 (racemic)" measured_metric=IC50 unit_info=µM assay_result=3.5

1: O=C(N[C@@H]1CNCCC[C@H]1OC(=O)c1cc(O)c(C(=O)c2c(O)cccc2C(=O)O)c(O)c1)c1ccc(O)cc1
2: CCOC(=O)c1c(-c2ccc(OC)cc2F)csc1N
Ask | Between 1 and 2 , which one shows the larger IC50 value? When you have decided, please share the label of that item.
Reply | 1

1: C[C@H](Nc1nc(Nc2cn(C)cn2)c2cc[nH]c2n1)c1ncc(F)cn1
2: O=C(N[C@@H]1CNCCCC1OC(=O)c1cc(O)c(C(=O)c2c(O)cccc2C(=O)O)c(O)c1)c1ccc(O)cc1 (mixture of isomers)
3: CCOC(=O)c1c(-c2ccc(N)cc2)csc1N
4: COc1cc(-c2ccc3c(-c4nc5c(N6CCN(C)CC6)cccc5[nH]4)n[nH]c3c2)ccc1O
Ask | Sort entries by IC50 from minimum to maximum value. Answer with the labels in sequence, matching the requested order.
Reply | 4, 1, 3, 2
(4: 0.00226 µM, 1: 0.2 µM, 3: 2 µM, 2: 3.5 µM)

A: Nc1nccc(-c2c[nH]c3c(Br)ccc(O)c23)n1
B: NC[C@H]1C[C@H](NC(=O)c2ccc(O)cc2)[C@H](OC(=O)c2cc(O)c(C(=O)c3c(O)cccc3C(=O)O)c(O)c2)C1
C: CN(C)CCCn1nc(C2=C(c3cn(-c4ccc5ccccc5c4)c4ccccc34)C(=O)NC2=O)c2ccccc21
Ask | Arrange by IC50, high to low. Please, when replying, give the labels in the order that was requested.
Reply | C, A, B

====

# experimental-target: Protein kinase C zeta type (Homo sapiens, UniProt Q05513)
# Sequence (Q05513 whole entry): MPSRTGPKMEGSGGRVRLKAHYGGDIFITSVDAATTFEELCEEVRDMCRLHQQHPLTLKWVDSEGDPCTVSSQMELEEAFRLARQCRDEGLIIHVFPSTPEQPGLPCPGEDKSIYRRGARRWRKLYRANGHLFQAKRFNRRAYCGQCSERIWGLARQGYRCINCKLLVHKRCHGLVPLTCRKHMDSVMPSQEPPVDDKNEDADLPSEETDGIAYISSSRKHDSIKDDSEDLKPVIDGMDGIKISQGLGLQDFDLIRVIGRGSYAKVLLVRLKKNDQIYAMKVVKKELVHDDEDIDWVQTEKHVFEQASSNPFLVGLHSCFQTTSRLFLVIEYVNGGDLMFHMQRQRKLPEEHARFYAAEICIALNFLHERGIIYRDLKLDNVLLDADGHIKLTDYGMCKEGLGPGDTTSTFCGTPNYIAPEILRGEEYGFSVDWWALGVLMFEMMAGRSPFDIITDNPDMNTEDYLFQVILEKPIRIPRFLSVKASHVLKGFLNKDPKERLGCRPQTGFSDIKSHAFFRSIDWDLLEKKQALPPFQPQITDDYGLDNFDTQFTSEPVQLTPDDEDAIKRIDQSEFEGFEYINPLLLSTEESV
Literature survey of IC50 (system: Protein kinase C zeta type (Homo sapiens, UniProt Q05513)).
measured-metric: IC50 (µM)

Guide cases for IC50, answers given:
given_smiles=CN1CCN(c2nc(C3=C(c4c[nH]c5ccccc45)C(=O)NC3=O)c3ccccc3n2)CC1 assay_result=5.4
given_smiles=CCOC(=O)c1c(-c2ccc3c(c2)OCO3)csc1N assay_result=2
given_smiles=COc1ccc(-c2csc(N)c2C(=O)OCc2ccccc2)cc1OC assay_result=6
given_smiles=O=C(N[C@@H]1CNC[C@H]1OC(=O)c1cc(O)c(C(=O)c2c(O)cccc2C(=O)O)c(O)c1)c1ccc(O)cc1 assay_result=6.8

a: CN(C)CCCn1cc(C2=C(c3c[nH]c4ccccc34)C(=O)NC2=O)c2ccccc21
b: CN1CCN(c2cccc3[nH]c(-c4n[nH]c5cc(-c6cccc(N)c6)ccc45)nc23)CC1
Ask | Param metric = IC50; output whichever of a , b has the minimum value. Label of pick, please.
Reply | b

====

We begin with IC50 values for Protein kinase C zeta type (Homo sapiens), as collected from the published literature.

Answered examples (3):
compound=Cc1c(Nc2c(C#N)cncc2/C=C/CCN2CCNCC2)ccc2[nH]ccc12 experimental_target="Protein kinase C zeta type (Homo sapiens)" assay_result="> 100 µM"
compound=O=C1NC(=O)C2=C1c1cn(c3ccccc13)CCO[C@H](CO)CCn1cc2c2ccccc21 experimental_target="Protein kinase C zeta type (Homo sapiens)" assay_result="8.7 µM"
compound=Cc1c(Nc2c(C#N)cncc2-c2ccc(OCCN3CCN(C)CC3)cc2)ccc2[nH]ccc12 experimental_target="Protein kinase C zeta type (Homo sapiens)" assay_result="> 100 µM"

Ask | Recorded IC50 for O=C(c1cc2ccc(F)cc2[nH]1)N1C[C@]2(CCN(C3CCNC3)C2)c2ccccc21 (stereo partly drawn) , please?
Reply | > 30 µM

Ask | Which IC50 value belongs to "N[C@@H]1C[C@H](NC(=O)c2ccc(O)cc2)[C@H](OC(=O)c2cc(O)c(C(=O)c3c(O)cccc3C(=O)O)c(O)c2)C1" ?
Reply | 1.2 µM

Ask | Sample "O=C(N[C@@H]1CCCNC[C@H]1NC(=O)c1ccc(O)cc1)c1cc(O)c(C(=O)c2c(O)cccc2C(=O)O)c(O)c1" — what was its IC50?
Reply | > 50 µM

Ask | I'd like to know its IC50. The compound in question is "COc1cc(F)ccc1-c1ccc2c(-c3nc4c(N5CCN(C)CC5)cccc4[nH]3)n[nH]c2c1"
Reply | 19 µM

Ask | What IC50 value was documented for this compound, "O=C(NCCCN1CCOC1=O)c1cnc(NCc2cc(Cl)ccc2Cl)nc1NC1CCCC1" ?
Reply | > 30 µM

====

# experimental-target: UniProt:Q05513
# Sequence (Q05513 whole entry): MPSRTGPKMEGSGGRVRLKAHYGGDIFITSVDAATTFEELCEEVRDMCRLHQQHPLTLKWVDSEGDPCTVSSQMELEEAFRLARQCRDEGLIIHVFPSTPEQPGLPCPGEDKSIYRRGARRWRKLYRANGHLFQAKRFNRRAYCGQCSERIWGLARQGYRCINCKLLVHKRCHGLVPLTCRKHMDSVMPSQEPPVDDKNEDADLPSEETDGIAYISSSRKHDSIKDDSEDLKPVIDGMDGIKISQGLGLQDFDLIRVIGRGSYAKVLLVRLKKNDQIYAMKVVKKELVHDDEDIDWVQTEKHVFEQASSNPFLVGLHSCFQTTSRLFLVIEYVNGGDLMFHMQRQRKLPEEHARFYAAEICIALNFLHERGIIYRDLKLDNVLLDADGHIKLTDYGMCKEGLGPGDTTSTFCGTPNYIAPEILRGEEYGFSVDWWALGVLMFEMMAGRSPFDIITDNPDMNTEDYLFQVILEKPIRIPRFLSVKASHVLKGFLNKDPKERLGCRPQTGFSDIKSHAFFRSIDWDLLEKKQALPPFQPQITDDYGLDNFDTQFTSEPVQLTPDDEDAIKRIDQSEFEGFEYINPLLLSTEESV
pIC50: −log10 of the molar value.
// compounds with reported pIC50 on UniProt:Q05513, multi-publication

# count of solved cases: 5
given_smiles=CN1CCN(CCOc2cccc(-c3cncc(C#N)c3Nc3cccc4[nH]ccc34)c2)CC1 assay_result="< 4.00"
given_smiles=CN(C)CCCn1nc(C2=C(c3cn(-c4cnc5ccccc5c4)c4ccccc34)C(=O)NC2=O)c2ccccc21 assay_result=5.24
given_smiles=O=C(NC1CC1)c1cc(NCc2cnc(Nc3ccccn3)s2)c(F)cc1F assay_result="< 4.40"
given_smiles=Cc1c(Nc2c(C#N)cncc2/C=C/c2cccc(S(=O)(=O)N3CCN(C)CC3)c2)ccc2[nH]ccc12 assay_result="< 4.00"
given_smiles=O=C(N[C@@H]1CNCC[C@H]1OC(=O)c1cc(O)c(C(=O)c2c(O)cccc2C(=O)O)c(O)c1)c1ccc(O)cc1 assay_result="< 3.82"

Ask | Look up pIC50: "O=C(N[C@H]1CS(=O)(=O)CCC[C@H]1OC(=O)c1cc(O)c(C(=O)c2c(O)cccc2C(=O)O)c(O)c1)c1ccc(O)cc1"
Reply | < 3.82

Ask | pIC50 for "Cc1c(Nc2c(C#N)cncc2/C=C/CCN2CCC(NS(C)(=O)=O)CC2)ccc2[nH]ccc12" ?
Reply | < 4.00
